Values from patent US20250346644A1

# TARGET_OR_SYSTEM: T1, hIL2-DM-his (human, UniProt P60568 21-153)
# T1 construct: expressed in ExpiCHO-S cells, nickel-column purified; also called hIL-2 mutein containing two point mutations K64G and N90R (with a his-tag); not shown: his-tag
# T1 sequence (P60568 21-153 K84G/N110R): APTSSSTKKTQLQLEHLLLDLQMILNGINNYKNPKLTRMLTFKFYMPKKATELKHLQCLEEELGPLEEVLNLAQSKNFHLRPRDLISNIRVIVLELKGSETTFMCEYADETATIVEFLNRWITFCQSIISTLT
# PROTOCOL_TEXT: BLI ForteBio, Ab on Protein A sensor
Listed next: entries and their corresponding koff.
Write the answer as a number in s⁻¹, unit excluded.

The examples below pair each entry with its known result.
Q. # koff lookup, item hS4B6-H6K3 (antibody, V domains shown, full antibody) VH: QVQLVQSGAEVKKPGATVKISCKVSGDTITAYYLHWVRQAPGQGLEWIGRIDPEDDSTKYAENFKNRVTITADTSTNTAYMELSSLRSEDTAVYYCTTVTFYYSRELRWFAYWGQGTLVTVSS VL: DIVLTQSPATLSLSPGERATLSCQASQDIGNYLSWYQQKPGQAPRLLIYSATSLADGIPARFSGSRSGTDYTLTISSLEPEDFAVYYCLQHYSTPYTFGQGTKLEIK
A. 0.0193

Q. Follow-up entry: hS4B6-H6K3-hu10 (antibody, V domains shown, H6K3 with light chain D56T) VH: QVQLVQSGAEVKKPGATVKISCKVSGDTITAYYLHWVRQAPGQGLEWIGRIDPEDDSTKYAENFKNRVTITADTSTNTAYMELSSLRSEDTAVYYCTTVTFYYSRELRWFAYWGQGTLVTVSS VL: DIVLTQSPATLSLSPGERATLSCQASQDIGNYLSWYQQKPGQAPRLLIYSATSLATGIPARFSGSRSGTDYTLTISSLEPEDFAVYYCLQHYSTPYTFGQGTKLEIK
A. 0.0106

// below: koff requested for another binder
Q. # koff lookup, item hS4B6-H6K3-hu07 (antibody, V domains shown, H6K3 with heavy chain N65G) VH: QVQLVQSGAEVKKPGATVKISCKVSGDTITAYYLHWVRQAPGQGLEWIGRIDPEDDSTKYAENFKGRVTITADTSTNTAYMELSSLRSEDTAVYYCTTVTFYYSRELRWFAYWGQGTLVTVSS VL: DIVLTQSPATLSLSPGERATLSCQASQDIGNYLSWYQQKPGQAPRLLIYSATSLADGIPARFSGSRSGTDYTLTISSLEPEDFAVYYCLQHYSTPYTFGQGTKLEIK
A. 0.0181
